Tested on: SF-295
Test: NCI tumour cell line growth inhibition, 48 h
The source made the active and inactive calls. Rule as the data show it: active = GI50 up to about 1.1 µM and inactive = higher.

- molecule: "COc1ccc(C(CC2(c3ccc(OC)cc3)SCCCS2)NC(C)=O)cc1 (stereo not given)"
  target: "SF-295"
  GI50: "33.8 µM (inactive)"
- molecule: "COc1cc(NS(C)(=O)=O)ccc1Nc1cc(C)nc2ccc3[nH]ccc3c12"
  target: "SF-295"
  GI50: "> 100 µM (inactive)"
- molecule: "CCOc1ccc(/N=N/C2C(=O)N(C(=O)CC(=O)Nc3ccccc3OC)N=C2C)cc1 (stereo not given)"
  target: "SF-295"
  GI50: "> 36.6 µM (inactive)"
- molecule: "O=c1/c(=C/c2cccc([N+](=O)[O-])c2)sc2nc3ccccc3n12"
  target: "SF-295"
  GI50: "> 10 µM (inactive)"
- molecule: "CC(C)(C)OC(=O)[C@@H]1CCC(=O)N1C1(c2ccccc2)c2ccccc2-c2ccccc21"
  target: "SF-295"
  GI50: "19.1 µM (inactive)"

----------
A collection of compounds and their measured GI50
Tested on: TK-10
Assay: NCI tumour cell line growth inhibition, 48 h
The source made the active and inactive calls. No stated cut-off is given here; in the data, active = GI50 up to about 1.1 µM and inactive = higher.
assayMetric: GI50

- compound: "Cc1ccc2oc(=O)cc(CC(=O)O)c2c1"
  assayMetric: "GI50"
  valueReported: "> 100 µM (inactive)"
- compound: "Nc1nc2c(c(-c3ccc(F)cc3)n1)COC/C2=C\\c1ccc(F)cc1"
  assayMetric: "GI50"
  valueReported: "30.1 µM (inactive)"
- compound: "OCSc1nn(CO)c(=S)s1"
  assayMetric: "GI50"
  valueReported: "73.5 µM (inactive)"
- compound: "O=C(Cc1nc2c3c(ccc2nc1O)C(=O)c1ccccc1C3=O)C(=O)Nc1ccccc1[N+](=O)[O-]"
  assayMetric: "GI50"
  valueReported: "24.2 µM (inactive)"
- compound: "CC(C)C(NC(=O)Oc1ccccc1)C(=O)NC1c2c(Br)sc(Br)c2C(=O)C1O (stereo not given)"
  assayMetric: "GI50"
  valueReported: "8.49 µM (inactive)"
- compound: "Cc1ccc(C(=O)N/N=C(\\N=N\\c2ccccc2[N+](=O)[O-])c2ccc(N(C)C)cc2)cc1"
  assayMetric: "GI50"
  valueReported: "> 100 µM (inactive)"
- compound: "O=[N+]([O-])c1cccc2nnccc12"
  assayMetric: "GI50"
  valueReported: "46.3 µM (inactive)"
- compound: "COc1ccc(P2(=S)Oc3ccc(C(c4ccccc4)(c4ccccc4)c4ccccc4)cc3O2)cc1 (stereo not given)"
  assayMetric: "GI50"
  valueReported: "19.1 µM (inactive)"
- compound: "CCOP(=O)(OCC)C(F)(F)c1ccc(CC(NC(=O)OC(C)(C)C)C(=O)O)cc1 (stereo not given)"
  assayMetric: "GI50"
  valueReported: "> 10 µM (inactive)"
- compound: "COc1ccccc1/C=C/C(=O)c1sc(-c2cccnc2)nc1C"
  assayMetric: "GI50"
  valueReported: "> 100 µM (inactive)"
- compound: "COc1cc(OC)c(C2(c3c(OC(C)C)c(=O)c3=O)SCCCS2)cc1OC"
  assayMetric: "GI50"
  valueReported: "> 100 µM (inactive)"
- compound: "C/C(CC(=O)Nc1ccccc1C)=N/NS(=O)(=O)c1ccc(C)cc1"
  assayMetric: "GI50"
  valueReported: "> 100 µM (inactive)"
- compound: "CCOC(=O)C(c1c[nH]c2ccccc12)(c1c[nH]c2ccccc12)c1c[nH]c2ccccc12"
  assayMetric: "GI50"
  valueReported: "41.3 µM (inactive)"
- compound: "CC1CCC2(OC1)OC1CC3C4CC=C5CC(OC6OC(CO)C(OC7OC(C)C(OC8OC(C)C(O)C(O)C8O)C(O)C7O)C(O)C6OC6OC(C)C(O)C(O)C6O)CCC5(C)C4CCC3(C)C1C2C (stereo not given)"
  assayMetric: "GI50"
  valueReported: "1.39 µM (inactive)"
- compound: "N#CCCC1(CCC#N)S(=O)(=O)OCCOS1(=O)=O"
  assayMetric: "GI50"
  valueReported: "> 100 µM (inactive)"
- compound: "COc1cc(/C=C2/SC(c3ccccc3)N(c3cccc(NC(C)=O)c3)C2=O)cc(OC)c1OC (stereo not given)"
  assayMetric: "GI50"
  valueReported: "> 100 µM (inactive)"
- compound: "Cc1nc2ccc(Br)cc2c(=O)n1-c1ccc(N)cc1"
  assayMetric: "GI50"
  valueReported: "> 100 µM (inactive)"
- compound: "O=C1c2ccccc2CC1C1(O)C(=O)Nc2ccccc21 (stereo not given)"
  assayMetric: "GI50"
  valueReported: "> 100 µM (inactive)"
- compound: "CCCC(=O)OC[n+]1cccc(-c2c(COC(=O)NC(C)C)c(COC(=O)NC(C)C)c3n2CCC3)c1"
  assayMetric: "GI50"
  valueReported: "> 72.4 µM (inactive)"
- compound: "Nc1nc2c(c(-c3ccccc3Cl)n1)COC/C2=C\\c1ccccc1Cl"
  assayMetric: "GI50"
  valueReported: "17.6 µM (inactive)"
